Test system: HCT-116
Assay: Cytotoxicity against human colon cancer cells (HCT116)
Type: functional, cell-based
pIC50: −log10 of the molar value.
Each record here notes measured pIC50.
reported endpoint: pIC50

* O=C1c2c(c3c4cccc(O)c4n(C4OC(CO)C(O)C(O)C4O)c3c3[nH]c4c(O)cccc4c23)C(=O)N1NC(CO)CO (configuration not stated) | 7.49
* O=CNN1C(=O)c2c(c3c4cccc(O)c4n(C4OC(CO)C(O)C(O)C4O)c3c3[nH]c4c(O)cccc4c23)C1=O (configuration not stated) | 6.92

----------
System: P388
Assay: Cytotoxicity against murine leukemia cell line (P388)
Type: functional, cell-based
Settings: Mus musculus
reported endpoint: IC50 (nM)

- O=CNN1C(=O)c2c(c3c4cccc(O)c4n(C4OC(CO)C(O)C(O)C4O)c3c3[nH]c4c(O)cccc4c23)C1=O (stereo unspecified): 62
